Biological target: human EP1 receptor (Homo sapiens, UniProt P34995)
Construct: expressed in transfected cells
Test: Antagonist activity using cells expressing human EP1 receptor (SRE-luciferase reporter activity, PGE2 10 nM)
Assay type: cell-based
Settings: HEK293 cells stably expressing human EP1 receptor, 6 hours, read-out: IC50 value in the measurement of antagonist activity using human EP1 receptor expressing cells
pIC50: −log10 of the molar value.
property_name: pIC50

O=C(O)c1csc(-n2nc(-c3ccccc3)c3ccc(NC(=O)C4CC4)cc32)n1	6.30 to 7.00
O=C(O)c1csc(-n2nc(-c3ccccc3)c3c2CC(C(F)(F)F)CC3)n1 (stereo not drawn)	≥ 7.70
O=C(O)c1csc(-n2nc(-c3ccccc3)c3ccc(NC(=O)C45CC6CC(CC(C6)C4)C5)cc32)n1	6.30 to 7.00
O=C(O)c1csc(-n2nc(-c3ccccc3)c3ccc(NCCc4ccccc4)cc32)n1	7.00 to 7.70
O=C(O)c1csc(-n2nc(-c3ccccc3)c3ccc(Cl)cc32)n1	≥ 7.70

input: Value lookup for pIC50; key = `CN(C)c1ccc2c(-c3ccccc3)nn(-c3nc(C(=O)O)cs3)c2c1`
output: ≥ 7.70

input: Value lookup for pIC50; key = `O=C(O)c1ccc(-n2nc(-c3ccccc3)c3ccccc32)s1`
output: 6.30 to 7.00

input: Value lookup for pIC50; key = `CCSc1ccc2c(-c3ccccc3)nn(-c3nc(C(=O)O)cs3)c2n1`
output: 6.30 to 7.00

input: Value lookup for pIC50; key = O=C(O)c1csc(-n2nc(-c3ccccc3)c3ccc(NCC4CCOC4)cc32)n1 (stereo not drawn)
output: 6.30 to 7.00

* * *

Target: human EP1 receptor (Homo sapiens, UniProt P34995)
Construct: expressed in transfected cells
Sequence (P34995 1-402): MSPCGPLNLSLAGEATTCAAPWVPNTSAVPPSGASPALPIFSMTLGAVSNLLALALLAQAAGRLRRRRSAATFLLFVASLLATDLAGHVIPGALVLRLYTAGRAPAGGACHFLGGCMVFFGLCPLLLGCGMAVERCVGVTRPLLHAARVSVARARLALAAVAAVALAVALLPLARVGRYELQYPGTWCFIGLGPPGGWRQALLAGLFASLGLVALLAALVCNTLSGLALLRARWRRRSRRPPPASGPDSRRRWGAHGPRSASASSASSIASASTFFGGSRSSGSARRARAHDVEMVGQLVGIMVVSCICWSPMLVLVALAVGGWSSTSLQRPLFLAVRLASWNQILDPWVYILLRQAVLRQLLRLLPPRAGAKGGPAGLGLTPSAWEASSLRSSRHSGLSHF
Test: Antagonist activity using cells expressing human EP1 receptor (intracellular Ca2+ assay, Fura 2-AM)
Type: cell-based
Settings: HEK293 cells stably expressing human EP1 receptor, PGE2 10 nM
pIC50: −log10 of the molar value.
Entries and their pIC50

Take a look at these entries with their results.
O=C(O)c1csc(-n2nc(-c3cccc(O)c3)c3ccccc32)n1	6.52 to 7.00
O=C(O)c1csc(-n2nc(-c3ccccc3)c3ccc(C(F)(F)F)nc32)n1	≥ 7.00
O=C(O)c1csc(-n2nc(C3=CCCCO3)c3ccc(C(F)(F)F)cc32)n1	≥ 7.00

input: Value lookup for pIC50; key = `Cc1ccccc1-c1nn(-c2nc(C(=O)O)cs2)c2ccccc12`
output: 6.52 to 7.00
